Reference source: patent US20240209004A1

experiment: Single intravenous administration exposure, pharmacokinetics (Test Example 4); format: in vivo, ICR mice; details: ICR, mouse, in vivo, iv, 100 mg/kg
Where a name gives a salt, the structure may show the parent alone.
measured_endpoint: AUC(0-t) (µg·h/mL)
Just the number in µg·h/mL, nothing appended.

Task item: So what does the record say about AUC(0-t) for O=C(O)c1c(F)ccc2c1OB(O)[C@@H]1C[C@H]21 [QPX7728 disodium salt] ?
Reply: 297

====

assay: Single intravenous administration exposure, pharmacokinetics (Test Example 4); format: in vivo, ICR mice; details: mouse, in vivo; ICR mice, single intravenous injection, 10 mg/kg, plasma; read-out: Cmax
measured_endpoint: Cmax (µg/mL)
Response body: numeric value in µg/mL, unit text excluded.

Task item: Any idea what Cmax was measured for O=C([O-])c1c2c(cc3c1O[B-](O)(O)[C@@H]1C[C@H]31)OCCO2.[Na+].[Na+] ?
Reply: 146

====

experiment: Single intravenous administration exposure, pharmacokinetics (Test Example 4); type: in vivo, ICR mice; details: ICR, mouse, in vivo, iv, 100 mg/kg
Counter-ions that a name gives are not always drawn.
measured_endpoint: Tmax (min)
Response body: numeric value in min, unit text excluded.

Task item: May I ask what Tmax has been recorded for O=C(O)c1c(F)ccc2c1OB(O)[C@@H]1C[C@H]21 [QPX7728 disodium salt] ?
Reply: 4.98

====

Assay: Single intravenous administration exposure, pharmacokinetics (Test Example 4)
Type: in vivo, ICR mice
Settings: mouse, in vivo; ICR mice, single intravenous injection, 100 mg/kg, plasma; read-out: AUCinf
Method: The solutions were prepared on the day of administration and stored at 4° C. Single intravenous injections were administered to ICR mice, which were grouped as follows. Blood was collected from the saphenous vein or the fundus venous plexus at 0.083 h, 0.25 h, 0.5 h, 1 h, 2 h, 4 h, 6 h and 12 h after administration (about 0.1 mL/time point). A biological analysis method was developed to determine plasma concentrations at different time points, and related pharmacokinetic parameters were calculated.
measured_endpoint: AUC(0-inf) (µg·h/mL)
Numbers only here, please. The scale is µg·h/mL.

Task item: Fill in the blank: the reported AUC(0-inf) of O=C([O-])c1c2c(cc3c1O[B-](O)(O)[C@@H]1C[C@H]31)OCCO2.[Na+].[Na+] is ____.
Reply: 1540

====

assay: Single intravenous administration exposure, pharmacokinetics (Test Example 4); format: in vivo, ICR mice; settings: mouse, in vivo; ICR mice, single intravenous injection, 10 mg/kg, plasma; read-out: Tmax
measured_endpoint: Tmax (min)
Kindly provide the numeric value in min only, without the unit symbol.

Task item: Recorded Tmax for O=C([O-])c1c2c(cc3c1O[B-](O)(O)[C@@H]1C[C@H]31)OCCO2.[Na+].[Na+] [Compound 1-1-Na] , please?
Reply: 4.98

====

assay: Single intravenous administration exposure, pharmacokinetics (Test Example 4); type: in vivo, ICR mice; conditions: mouse, in vivo; ICR mice, single intravenous injection, 100 mg/kg, plasma; read-out: Tmax
measured_endpoint: Tmax (min)
I only need the number, in min, no unit after it.

Task item: Tmax lookup needed for O=C([O-])c1c2c(cc3c1O[B-](O)(O)[C@@H]1C[C@H]31)OCCO2.[Na+].[Na+] , thanks.
Reply: 4.98

====

test: Single intravenous administration exposure, pharmacokinetics (Test Example 4); assay type: in vivo, ICR mice; settings: ICR, mouse, in vivo, iv, 10 mg/kg
Where a name gives a salt, the structure may show the parent alone.
measured_endpoint: AUC(0-inf) (ng·h/mL)
Give the quantity in ng·h/mL, number only.

Task item: Consider the molecule shown here: O=C(O)c1c(F)ccc2c1OB(O)[C@@H]1C[C@H]21 [QPX7728 disodium salt] What is its recorded AUC(0-inf)?
Reply: 46000

====

Test: Single intravenous administration exposure, pharmacokinetics (Test Example 4)
Type: in vivo, ICR mice
Settings: ICR, mouse, in vivo, iv, 100 mg/kg
Protocol: The solutions were prepared on the day of administration and stored at 4° C. Single intravenous injections were administered to ICR mice, which were grouped as follows. Blood was collected from the saphenous vein or the fundus venous plexus at 0.083 h, 0.25 h, 0.5 h, 1 h, 2 h, 4 h, 6 h and 12 h after administration (about 0.1 mL/time point). A biological analysis method was developed to determine plasma concentrations at different time points, and related pharmacokinetic parameters were calculated.
Counter-ions that a name gives are not always drawn.
measured_endpoint: Cmax (µg/mL)
Field format: number, assumed µg/mL, no unit text.

Task item: Look at this compound and give its reported Cmax. O=C(O)c1c(F)ccc2c1OB(O)[C@@H]1C[C@H]21 [QPX7728 disodium salt]
Reply: 399

====

test: Single intravenous administration exposure, pharmacokinetics (Test Example 4); format: in vivo, ICR mice; settings: mouse, in vivo; ICR mice, single intravenous injection, 10 mg/kg, plasma; read-out: AUCinf
measured_endpoint: AUC(0-inf) (µg·h/mL)
Answer with a number only, understood to be in µg·h/mL.

Task item: I am curious: what AUC(0-inf) value has been reported for O=C([O-])c1c2c(cc3c1O[B-](O)(O)[C@@H]1C[C@H]31)OCCO2.[Na+].[Na+] [Compound 1-1-Na] ?
Reply: 213

====

test: Single intravenous administration exposure, pharmacokinetics (Test Example 4); type: in vivo, ICR mice; settings: mouse, in vivo; ICR mice, single intravenous injection, 100 mg/kg, plasma; read-out: Cmax
measured_endpoint: Cmax (µg/mL)
Kindly answer with a numeric value in µg/mL, unit omitted.

Task item: Reported Cmax, compound O=C([O-])c1c2c(cc3c1O[B-](O)(O)[C@@H]1C[C@H]31)OCCO2.[Na+].[Na+] [Compound 1-1-Na] : ____
Reply: 607
